Hello, the source for this data is patent US20230203156A1, in case you need it.

Listing: EC50 of selected binders
Target entity: human MDR1 (multidrug resistance protein 1) (UniProt P08183 1-1280)
Protocol summary: FACS binding, 293T cells expressing human MDR1

Binder	EC50 (nM)
B1.30 (antibody, V domains shown) VH: EVMLVESGGGLVKPGGSLKLSCAASGFTFSSYTMSWVRQTPEKRLEWVATISSGGGNTYYPDSVKGRFTISRDNAKNNLYLQMSSLRSEDTALYYCARYYRYDAWFAYWGQGTLVTVSA VL: DVLMTQTPLSLPVSLGDQASISCRSSQSIVHSTGNTYLEWYLQKPGQSPKLLIYKVSNRFSGVPDRFSGSGSGTDFTLKISRVETEDLGVYYCFQGSHVPRTFGGGTKLEIK	8.5
B1.28 (antibody, V domains shown) VH: EVKLVESGGGLVKPGGSLKLSCAASGFTFGLYTMSWVRQTPERRLEWVATISSGGSNTYYPDSVKGRFTISRDNAKNNLFLQMNSLRSEDTALYYCARYYRYDAWFAYWGQGTLVTVSS VL: DVLLTQTPLSLPVSLGDQASISCRSSQNIVHSTGNTYLDWYLQKPGQSPKLLIYKVSNRFSGVPDRFSGSGSGTDFTLKISRVEAEDLGVYFCFQGSHIPRTFGGGTKLEIK	4.8
B1.201 (antibody, V domains shown) VH: EVQLVESGGALMKPGGSLKFSCAASGFTFTNYAMSWVRQTPEKRLEWVATISSGGSNTYYSDSVKGRFTISRDNAKTTLYLQMSGLRSEDTALYYCAKFSNFGRFASWGQGTLVTVSA VL: DVLMTQTPLSLPVSLGDQASISCRFSQSIVHSSGNTYLEWYLQKPGQSPRLLIYKVSNRFFGVPDRISGSGSGTDFTLRISRVEAEDLGVYYCFQGSHVPYTFGGGTKLEIK	8
B1.27 (antibody, V domains shown) VH: EVKLVESGGGLVKPGGSLKLSCAASGFTFSSYTMSWVRQTPEKRLEWVATVSSGGGNTYYPDSVKGRFTISRDNAKNNLYLQMSSPRSEDTALYYCARYGNYGWFTYWGQGTLVTVSS VL: DVVMTQTPLSLPVSLGDQASISCRSSQNIVHSTGNTYLDWYLQKPGQSPKLLIYKVSNRFSGVPDRFSGSGSGTDFTLKISRVEAEDLGVYFCFQGSHIPRTFGGGTKLEIK	34
B1.39 (antibody, V domains shown) VH: EVMLVESGGGLVKPGGSLKLSCAASGFTFSSYTMSWVRQTPEKRLEWVATVSSGGGNTYYPDSVKGRFTISRDNAKNNLYLQMSSLRSEDTALYYCARYGNYGWFTYWGQGTLVTVSA VL: DVLMTQTPLSLPVSLGDQASISCRSSQSILHSNGNTYLEWYLQKPGQSPKLLIYKVSNRFSGVPDRFSASGSGTDFTLKISRVEAEDLGIYYCFQGSHVPRTFGGGTKLEIK	14.2
B1.198 (antibody, V domains shown) VH: EVQLVESGGALVKPGGSLKLSCAASGFTFSNYAMSWVRQTPEKRLEWVATISSGGSYTYYPDSVKGRFTISRDNAKNTLYLQMSSLRSEDTALYYCAKYSNYGRFAYWGQGTLVTVSA VL: DVVMTQTPLSLPVSLGDQASISCRSSQSIVDSNGNTYLEWYLQKPGQSPKLLIYKVSNRFFGVPDRFSGSGSGTDFTLKISRVEAEDLGVYYCFQGSHVPYTFGGGTKLEIK	14.8
B1.99 (antibody, V domains shown) VH: EVQLVESGGALVKPGGSLKLSCAASGFTFSNYAMSWVRQTPERRLEWVATISSGGSYTYYPDSVKGRFTISRDNAKNTLYLQMSSLISEDTALYYCTRGYGNFAWFAYWGHGTLVTVSA VL: DVVMTQTPLSLPVSLGDQVSISCRSSQSIVHSYGSTYLEWYLQKPGQSPKLLIYKVSNRFSGVPDRFSGSGSGTDFTLKISRVEAEDLGVYFCFQGSHIPYTFGGGTKLELK	88.2
B1.223 (antibody, V domains shown) VH: EVKLVESGGALVKPGGSLKLSCAASGFTFSNYAMSWVRQTPEKRLEWVATISSGGSYTYYPDSVKGRFTISRDNAKTTLYLQMSGLRSEDTALYYCAKFSNYGRFASWGQGTLVTVSS VL: DIQMIQSPLSLPVSLGDQASISCRSSQSIVHSSGNTYLEWYLQKPGQSPRLLIYKVSNRFFGVPDRISGSGSGTDFTLRISRVEAEDLGVYYCFQGSHVPYTFGGGTKLELK	4.6
B1.188 (antibody, V domains shown) VH: EVMLVESGGALVKPGGSLKLSCAASGFTFSNYAMSWVRQTPEKRLEWVATISSGGSYTYYPDSVKGRFTISRDNARNTLYLQMSSLRSEDTAMYYCARGYGNFAWFAYWGQGTLVTVSA VL: DIQMTQSPLSLPVSLGDQASISCRSSQSIVHSTGNTYLEWYLQKPGQSPKLLIYKVSNRFSGVPDRFSGSGSGTDFTLKISRVEAEDLGVYYCFQGSHVPFTFGSGTKLEIK	14.1
B1.85 (antibody, V domains shown) VH: EVQLVESGGALVKPGGSLKLSCAASGFTFSNYGVSWVRQTPEKRLEWVATISSSGSYTYYPDIVRGRFTISRDNAKNTLYLQMSSLRSEDTAFYYCARGYGNFAWFAYWGQGTLVTVSA VL: DIQMTQSPLSLPVSLGDQASISCRSSQSIVHSTGNTYLEWYLQKPGQSPKLLIYKVSNRFSGVPDRFSGSGSGTDFTLKINRVEAEDLGVYYCFQGSHVPYTFGGGTKLEIK	9.2
B1.207 (antibody, V domains shown) VH: GVQLVESGGALVKPGGSLKLSCAASGFTFSNYAMSWVRQTPEKRLEWVATISSGGSYTYYPDSVKGRFTISRDNAKTTLYLQMSGLRSEDTALYYCAKYSNYGRFASWGQGTLVTVST VL: DVLMTQTPLSLPVSLGDQASISCRSSQSIVHSSGNTYLEWYLQKPGQSPRLLIYKVSNRFFGVPDRISGSGSGTDFTLRISRVEAEDLGVYYCFQGSHVPYTFGGGTKLEIK	4.3
